test system: human Kv1.3 (human) (UniProt P22001)
Sequence (P22001 whole entry): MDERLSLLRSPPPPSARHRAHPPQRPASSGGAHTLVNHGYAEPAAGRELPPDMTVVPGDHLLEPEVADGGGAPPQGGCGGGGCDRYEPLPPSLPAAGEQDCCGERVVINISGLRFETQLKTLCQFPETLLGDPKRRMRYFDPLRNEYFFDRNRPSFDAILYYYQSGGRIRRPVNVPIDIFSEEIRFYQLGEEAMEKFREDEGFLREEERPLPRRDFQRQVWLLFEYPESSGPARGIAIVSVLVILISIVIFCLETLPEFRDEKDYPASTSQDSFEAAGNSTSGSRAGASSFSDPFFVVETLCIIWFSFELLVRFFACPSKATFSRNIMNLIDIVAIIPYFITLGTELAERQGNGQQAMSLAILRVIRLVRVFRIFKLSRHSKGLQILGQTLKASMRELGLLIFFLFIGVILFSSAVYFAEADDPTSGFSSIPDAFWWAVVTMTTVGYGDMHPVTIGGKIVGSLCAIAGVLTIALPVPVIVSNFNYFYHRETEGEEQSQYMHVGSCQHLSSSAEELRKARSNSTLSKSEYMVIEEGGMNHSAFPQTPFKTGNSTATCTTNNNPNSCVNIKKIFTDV
test details: cell-based or functional assay
A collection of binders and their measured IC50, huKv1.3 current, QPatch patch clamp
property measured: IC50, huKv1.3 current, QPatch patch clamp

binder | value measured
KB_A07_ShK (antibody, V domains shown) VH: EVQLVESGGGLVRPGGSLRLSCAASGFTFSSYAMSWVRQAPGKGLEWVSAISGSGGSTYYADSVKGRFTISRDNTKNSLYLQMTSLRADDTAFYYCVKDFGPGYGTGWFDYWGPGTLVTVSS VL: NWYQQKPGKAPKLLIYAAGVRSCIDTIPKSRCTAFQCKHSMKYRLSFCRKTCGTCSRSGVPSRFSGSGSGTDFTLTISSLQPEDFATYYCQQGASPPYTFGQGTKVEIKR | 0.04 µM
KB_A07_MoKa-1 (antibody, V domains shown) VH: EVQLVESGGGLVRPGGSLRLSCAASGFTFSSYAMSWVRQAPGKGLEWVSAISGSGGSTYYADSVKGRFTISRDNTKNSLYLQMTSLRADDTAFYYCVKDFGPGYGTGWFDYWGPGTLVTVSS VL: DIQMTQSPSSLSASVGDRVTITCRASQSISSYLNWYQQKPGKAPKLLIYAAGVINVKCSLPQQCIKPCKDAGMRFGKCMNKKCRCYSSRSGVPSRFSGSGSGTDFTLTISSLQPEDFATYYCQQGASPPYTFGQGTKVEIKRT | > 10 µM
KB_A07 IgG1 (EETI-II fusion) (antibody, V domains shown) VH: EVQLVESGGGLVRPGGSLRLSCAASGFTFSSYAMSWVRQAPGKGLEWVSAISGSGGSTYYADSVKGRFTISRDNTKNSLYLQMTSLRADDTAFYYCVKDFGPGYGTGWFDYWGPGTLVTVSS VL: YLNWYQQKPGKAPKLLIYAAGVCPRILMRCKQDSDCLAGCVCGPNGFCGSRSGVPSRFSGSGSGTDFTLTISSLQPEDFATYYCQQGASPPYTFGQGTKVEIKR | > 10 µM
